B1: WDFY1 (parent)
chain: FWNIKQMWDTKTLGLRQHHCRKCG

- Variants of: B1
- Experiment: protein stability index of a GFP-peptide fusion (GPS, HEK-293T) (PSI 1-6); higher = more stable;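 further: lentivirally expressed fusions sorted by FACS into six bins by GFP to DsRed ratio, PSI derived from sequencing read proportions per bin multiplied by bin number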
- Conditions Used: c terminus: a fixed tail appended
Listed next: entries and their corresponding protein stability index.
The response must contain the number and no unit.

T12L :: 1.36
C23N :: 2.57
W8Q :: 2.59
F1G :: 2.3
F1M :: 2.98
F1K :: 2.45
K11A :: 2.14
K11Y :: 1.77

For record "H19Y" the listed protein stability index is 2.5

Consider "H19E" . Its measured protein stability index is 2.09

Summary for this variant, "G24T" : protein stability index is 2.29

Query "R16N" yields protein stability index of 2.1
